Source listed as patent US20230233569A1.

biological target: KRAS G12D (Homo sapiens, UniProt P01116+P62937, G12D); assay: Disruption of BRAF RBD interaction with Ras (FRET / MOA assay, with Cyclophilin A); type: biochemical; settings: read-out: KRAS G12D FRET data, IC50
Sequence (P01116 1-169 isoform P01116-2 G12D limits assumed): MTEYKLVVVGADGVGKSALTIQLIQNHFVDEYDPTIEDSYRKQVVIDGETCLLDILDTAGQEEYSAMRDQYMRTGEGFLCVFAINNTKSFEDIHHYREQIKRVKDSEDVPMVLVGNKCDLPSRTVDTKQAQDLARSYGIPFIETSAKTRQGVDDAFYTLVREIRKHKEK
Sequence (P62937 whole entry): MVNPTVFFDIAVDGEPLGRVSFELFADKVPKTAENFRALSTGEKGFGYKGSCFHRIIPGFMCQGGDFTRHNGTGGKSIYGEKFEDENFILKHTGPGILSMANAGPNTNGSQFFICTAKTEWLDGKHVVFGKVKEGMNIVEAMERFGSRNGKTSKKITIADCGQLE
pIC50: −log10 of the molar value.
measureName: pIC50

The following compounds have reported results that may help.
[
  {
    "compound": "CCn1c(-c2cccnc2[C@H](C)OC)c2c3cc(ccc31)-c1cc(O)cc(c1)C[C@H](NC(=O)[C@H](C(C)C)N(C)C(=O)C1(O)CC1)C(=O)N1CCC[C@H](N1)C(=O)OCC(C)(C)C2 (atropisomer, axis not shown)",
    "targetUnderTest": "KRAS G12D (Homo sapiens, UniProt P01116+P62937, G12D)",
    "pIC50": "6.00 to 7.00"
  },
  {
    "compound": "CCn1c(-c2cccnc2[C@H](C)OC)c2c3cc(ccc31)-c1csc(n1)C[C@H](NC(=O)[C@H](C(C)C)N(C)C(=O)N1C[C@H](N)[C@@H](F)C1)C(=O)N1CCC[C@H](N1)C(=O)OCC(C)(C)C2 (atropisomer, axis not shown)",
    "targetUnderTest": "KRAS G12D (Homo sapiens, UniProt P01116+P62937, G12D)",
    "pIC50": "6.00 to 7.00"
  },
  {
    "compound": "CCn1c(-c2cccnc2[C@H](C)OC)c2c3cc(ccc31)-c1csc(n1)C[C@H](NC(=O)[C@H](C(C)C)N(C)C(=O)N1CCCC13CCN(C)CC3)C(=O)N1CCC[C@H](N1)C(=O)OCC(C)(C)C2",
    "targetUnderTest": "KRAS G12D (Homo sapiens, UniProt P01116+P62937, G12D)",
    "pIC50": "6.00 to 7.00"
  },
  {
    "compound": "C=CC(=O)N1CC[C@H](C(=O)N(C)[C@H](C(=O)N[C@H]2Cc3cc(O)cc(c3)-c3ccc4c(c3)c(c(-c3cc(CN(C)C)cnc3COC)n4CC)CC(C)(C)COC(=O)[C@@H]3CCCN(N3)C2=O)C(C)C)C1",
    "targetUnderTest": "KRAS G12D (Homo sapiens, UniProt P01116+P62937, G12D)",
    "pIC50": "5.00 to 6.00"
  }
]

Let's switch to this compound now.
Entry CCn1c(-c2cnccc2COC)c2c3cc(ccc31)-c1cc(O)cc(c1)C[C@H](NC(=O)[C@H](C(C)C)N1CCCCC1=O)C(=O)N1CCC[C@H](N1)C(=O)OCC(C)(C)C2 : reported pIC50 = ?
5.00 to 6.00
